Tested on: MS2 coat protein
experimentDescription: apparent KD of MS2 coat protein; higher = weaker reporter binding
assayConditions: Eterna round: R107; input ligand: tryptophan 2.4 mM
# apparent KD of MS2 coat protein values compiled below

Kindly note the recorded apparent KD of MS2 coat protein for GAGCUGAUGUAGGGUGGAUAUCCUUGAGAUACCAGUACAGAAAUGUACCCUUGGCAGCUCUUCCUUACAUGAGGAUCACCCAUGU [Ex Theophylline A 25] , which is 0.0204 µM

---

Tested on: K4 kissing-loop RNA reporter
experimentDescription: apparent KD of K4 kissing-loop reporter; higher = weaker reporter binding
assayConditions: Eterna round: R107; input ligand: arginine 13.2 mM
Could you label it TRUE if measured apparent KD of K4 kissing-loop reporter is 0.3 µM or higher, and FALSE otherwise?

Illustrative cases are given below, each with its answer.
{"sequenceRecord": "GUCUAGCUAGCAGGAUAUAGCUGGUAGUGAUGUUACCACUAGAACUCUGCGGAAACGCAGAGUAUCCUAGAAGGGCUAGCUAGAC", "targetEntity": "K4 kissing-loop RNA reporter", "classification": "FALSE"}
{"sequenceRecord": "GACGGGCAGUGAUGUUGCCGGUCUCUUGGACGAGGACCGGUACGGCCGCCACUCGAUCUGAUGCGAGAAUUGUAUCUUUUAAUAA [Tegesosoat]", "targetEntity": "K4 kissing-loop RNA reporter", "classification": "FALSE"}
{"sequenceRecord": "UCUCUUCUCAGUGAUGUUGAGUAAUCGGAAGGAGCGCGUGAAAACGCAGGUAGGUCGCCGAUUUGUGAAGUAUCUUCGCAAGAGA [Arginine A K4 26]", "targetEntity": "K4 kissing-loop RNA reporter", "classification": "TRUE"}
{"sequenceRecord": "CUAGAAGUGAUGUUUCAUAGUAAAUCUGAUACCAGCAUUAAACCCUGCCCUUGGCAGCAGAAUGGGCUGAUAGACUCCUGCAGCU [theeternabot_sameState_KL_Theo_A_36]", "targetEntity": "K4 kissing-loop RNA reporter", "classification": "FALSE"}
{"sequenceRecord": "UAGAUGUUGUAAGAUAUUGAUAGUCGGGAAGGAGCGCUCACAAUAGCAGGUAGGUCGCCCGACAGUGUUAGGAGUGAUGUUCCUU [7.)]", "targetEntity": "K4 kissing-loop RNA reporter", "classification": "FALSE"}

Textbook exercise: given the entry CGUAGUUGGGCGGCCGCCACUUGAACAGCUUUGCCAAAGGCAGAGCUCUAGAGUGAUGUUCUGGCAAGGACCGGGUCCAACUACA [#02 K4 Tryptophan B Same State] , state whether its apparent KD of K4 kissing-loop reporter is greater than or equal to 0.3 µM.
TRUE

---

Test system: K4 kissing-loop RNA reporter;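 also: bound reporter read as fluorescence of individual clusters on recovered sequencing chips by microscopy, with normalized cluster intensities fitted with a binding model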
experimentDescription: apparent KD of K4 kissing-loop reporter; higher = weaker reporter binding
assayConditions: Eterna round: R107; input ligand: none
observedProperty: apparent KD of K4 kissing-loop reporter (µM)
Hi! Could you send only the number? It should be in µM, unit omitted.

Worked cases, apparent KD of K4 kissing-loop reporter given:
{"sequenceRecord": "CCUAUCUCAUACGAUACCAGUGAAUUAAUAUUUAUAAGCAGUGAUGUUGCAUUCCAAGUACACCCUUGGCAGCGUAUGGGAUAGG [Ex Theophylline B K4 20]", "targetEntity": "K4 kissing-loop RNA reporter", "observedProperty": "apparent KD of K4 kissing-loop reporter", "assayResult": 0.151}
{"sequenceRecord": "UAGUGUCGCGCAGGAUAUACUGAUUGGAGUGAUGUUCCAAACAUGAACGUGAGACUUUUACAAGAAGUAGAAGGGCGUGAGACAU [Exclusion FMN B GF 21]", "targetEntity": "K4 kissing-loop RNA reporter", "observedProperty": "apparent KD of K4 kissing-loop reporter", "assayResult": 0.405}

apparent KD of K4 kissing-loop reporter reading for UAGUCAUACAGAGGAUAUCGUAUGAGUGAUGUUCAAGUGCGUACAUCAACUUGAUGUACAGAUAGACGAGAAGGCUGUAUGACUA [FMB B SS t6] : 0.487

---

System: MS2 coat protein
experimentDescription: apparent KD of MS2 coat protein; higher = weaker reporter binding
assayConditions: Eterna round: R101; input ligand: none
observedProperty: apparent KD of MS2 coat protein
Please format your answer as a value with the unit trailing.

Here's what some known entries look like.
{"sequenceRecord": "UAAUCUCGAGCCGACGGGAGAUUACAUGAGGAUCACCCAUGUGAGGAUAUCCCUGAGAAGACGGCGGAGAAGGCACUGGGUAGG [Diraoran] (puzzle (switch architecture): Exclusion NG 3)", "targetEntity": "MS2 coat protein", "assayResult": "9.79 nM"}
{"sequenceRecord": "UUUAGUUUGUAGAAGGGUGACAUGAGGAUCACCCAUGUGCGUCGCCUGAAAGACCAGGGUACGCCACAGGAUAUACAAAGUAAA [Tiveedbila] (puzzle (switch architecture): Inverted Same State NG 2)", "targetEntity": "MS2 coat protein", "assayResult": "39.6 nM"}
{"sequenceRecord": "CACCUAAAUCCUAGAGGAUCACCCUAGGAUAUCACCGUCGAGGUGCCAUAAUGGCACCUCGACGGUGAGAAGGAGGGUGAAAUA [#SharedSequence - SLExNG3: 8] (puzzle (switch architecture): Small Loop Exclusion NG 3)", "targetEntity": "MS2 coat protein", "assayResult": "5.08 nM"}

Moving on to another sequence below.
Entry AAUUAAAUCCUAGGAUAUGACUCCGAAACGGAGUCAGAAGGAGGAUCACCCUUUCAAAGCUCAGCGUCGAAAGACGCUGAGCAA [#SharedSequence - ExNG1-17] (puzzle (switch architecture): Exclusion NG 1) — recorded apparent KD of MS2 coat protein = 649 nM

---

# key: entry, value: apparent KD of MS2 coat protein
Test system: MS2 coat protein
experimentDescription: apparent KD of MS2 coat protein; higher = weaker reporter binding
assayConditions: Eterna round: R107; input ligand: theophylline 20 uM
Record the value in nM, omitting the unit from your answer.

Would you please look over these solved cases?
{"sequenceRecord": "AUACAUGAGGAUCACCCAUGUGAUGGCCGGCGAGGACCGGUACGGCCGCCACUCGUGAUCCGUCCUGAAAGCAAAGCUCUCAACA [Esraleri]", "targetEntity": "MS2 coat protein", "apparent KD of MS2 coat protein (nM)": 85.3}
{"sequenceRecord": "GCGAUACAUGAGGAUCACCCAUGUGCAGAUACCAGAGGUGCAUGCCUCCCUUGGCAGCUGCGACGCUCUGGCAUCUUGUGGGAUG [Same State Theophylline A GF20]", "targetEntity": "MS2 coat protein", "apparent KD of MS2 coat protein (nM)": 86.4}

// next entry
ACAAGAGGUGGAAGGAGCGGGAGACAUGAGGAUCACCCAUGUGAAGUUUCGAGAGGAUCAUCCCAGGUAGGUCGCCAUGUCGAAA [ojjomullin] has a reported apparent KD of MS2 coat protein of 84.1

---

Consider the following sequences and their measured apparent KD of MS2 coat protein readings.
System: MS2 coat protein
experimentDescription: apparent KD of MS2 coat protein; designed switch direction (-1 OFF switch, 1 ON switch): -1; higher = weaker reporter binding
assayConditions: Eterna round: R95; input ligand: microRNA oligo, concentration not stated
Enter your answer as a number in nM; do not include the unit.

Recorded results for 4 sequences are shown here.
{"sequenceRecord": "UGUACGAUGCGUGCUGACAUGCGUCGUGCAGCAGGUGAUACAUGAGGAUCACCCAUGUCCUCAUUUGCUCGUCUAGU [Mat - Sensor v3 - Turn-off var 2 - D24] (puzzle: Sensor v3, turn-off variant 2)", "targetEntity": "MS2 coat protein", "apparent KD of MS2 coat protein [nM]": 467}
{"sequenceRecord": "CGUUCUCGAGUCAGGAUAUCGACUAAUUCCCAAGUCGAGAAGGGACAUGAGGAUCACCCAUGUAAAGAAAAGAA [Ainteedle] (puzzle: Brourd's mod of Exclusion 4)", "targetEntity": "MS2 coat protein", "apparent KD of MS2 coat protein [nM]": 30.1}
{"sequenceRecord": "AAAAGGCGUGUGAGGAUAUCCGGAGACGUGAAAAGGGAGAAGGCACAUGAGGAUCACCCAUGUGGAGUGUAAAG [Uscece] (puzzle: Brourd's mod of Exclusion 4)", "targetEntity": "MS2 coat protein", "apparent KD of MS2 coat protein [nM]": 18.6}
{"sequenceRecord": "CUUUUGUGAGGAUAUCAGUAGUAAAAAAAUAAAAUUACUACUGAGAAGGCACAUGAGGAUCACCCAUGUUCCUC [salish99_ex4_r3_009] (puzzle: Exclusion 4)", "targetEntity": "MS2 coat protein", "apparent KD of MS2 coat protein [nM]": 39.7}

Read the next record carefully.
Reported apparent KD of MS2 coat protein for AGUACUAACACGAAAGUGUUAGUACUAUAAGCUUGUGUAACAUGAGGAUCACCCAUGUCCUCAUAAGCUCGUCUUAU [Mat - Sensor v3 - Turn-off var 2 - D100] (puzzle: Sensor v3, turn-off variant 2) was 131
